Where these numbers come from: patent US10040781B2

# assaySystem: TBK1 (Homo sapiens (Human), UniProt Q9UHD2)
# Sequence (Q9UHD2 whole entry): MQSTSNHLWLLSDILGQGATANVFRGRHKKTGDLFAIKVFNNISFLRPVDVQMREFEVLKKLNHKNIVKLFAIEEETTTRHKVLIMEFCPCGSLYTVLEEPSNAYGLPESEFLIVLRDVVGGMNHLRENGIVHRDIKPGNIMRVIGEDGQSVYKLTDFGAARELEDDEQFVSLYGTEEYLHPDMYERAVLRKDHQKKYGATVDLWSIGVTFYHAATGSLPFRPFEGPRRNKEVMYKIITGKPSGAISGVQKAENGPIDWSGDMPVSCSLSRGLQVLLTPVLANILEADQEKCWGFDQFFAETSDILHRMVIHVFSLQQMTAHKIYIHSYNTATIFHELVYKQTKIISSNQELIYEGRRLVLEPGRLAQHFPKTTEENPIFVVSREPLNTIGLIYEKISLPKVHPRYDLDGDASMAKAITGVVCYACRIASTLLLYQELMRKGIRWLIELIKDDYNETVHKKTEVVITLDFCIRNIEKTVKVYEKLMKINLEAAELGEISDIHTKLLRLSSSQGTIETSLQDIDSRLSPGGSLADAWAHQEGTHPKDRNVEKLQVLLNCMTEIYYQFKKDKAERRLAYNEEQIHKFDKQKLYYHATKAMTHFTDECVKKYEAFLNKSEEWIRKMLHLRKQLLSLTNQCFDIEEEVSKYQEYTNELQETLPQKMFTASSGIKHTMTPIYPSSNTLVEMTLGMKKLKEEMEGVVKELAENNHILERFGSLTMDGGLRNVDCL
# experimentSummary: TBK1 TR-FRET enzymatic assay
I'd be grateful if you could share measured IC50 for these entries.
Numbers only, in nM.

NC(=O)c1cc(-c2ncnc(Nc3ccc(N4CCN(C5COC5)CC4)cc3)n2)ccc1OC1CNC(=O)C(F)(F)C1 (stereo not drawn)    65
N#Cc1cc(-c2ncnc(Nc3ccc(N4CCN(C5COC5)CC4)cc3)n2)ccc1O[C@@H]1CCNCC1(F)F (single isomer, unassigned)    2

Okay, next one:
Consider the compound "COCCNC(=O)N1CC[C@H](Oc2ccc(-c3ncnc(Nc4ccc(N5CCN(C6COC6)CC5)cc4)n3)cc2C#N)[C@H](F)C1" . State its measured IC50.
31

====

# assaySystem: IKKε (Homo sapiens (Human))
# Sequence (Q14164 whole entry): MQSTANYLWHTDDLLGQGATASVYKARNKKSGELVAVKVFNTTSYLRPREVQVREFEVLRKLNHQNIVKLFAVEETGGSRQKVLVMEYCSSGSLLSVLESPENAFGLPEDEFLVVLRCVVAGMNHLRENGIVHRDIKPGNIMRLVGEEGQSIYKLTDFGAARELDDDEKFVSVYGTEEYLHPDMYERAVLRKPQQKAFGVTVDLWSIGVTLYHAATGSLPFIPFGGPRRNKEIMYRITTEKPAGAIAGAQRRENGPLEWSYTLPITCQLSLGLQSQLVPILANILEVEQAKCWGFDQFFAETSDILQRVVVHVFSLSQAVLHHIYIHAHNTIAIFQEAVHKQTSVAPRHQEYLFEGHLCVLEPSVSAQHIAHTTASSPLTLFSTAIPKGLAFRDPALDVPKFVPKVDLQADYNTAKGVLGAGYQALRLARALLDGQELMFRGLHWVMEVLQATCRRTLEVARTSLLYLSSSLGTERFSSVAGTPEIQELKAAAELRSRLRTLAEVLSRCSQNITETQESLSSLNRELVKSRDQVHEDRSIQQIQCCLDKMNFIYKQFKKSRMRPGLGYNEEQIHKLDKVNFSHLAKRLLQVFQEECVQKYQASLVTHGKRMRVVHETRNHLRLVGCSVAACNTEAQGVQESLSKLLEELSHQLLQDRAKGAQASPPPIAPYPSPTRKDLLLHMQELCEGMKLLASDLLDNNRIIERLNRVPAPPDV
# experimentSummary: IKKε TR-FRET enzymatic assay
# Format: biochemical
# conditionDetails: read-out: IKKe IC50
measurementType: IC50 (nM)
Answers are plain numbers, in nM.

Consider the worked cases shown below.
C[C@H]1C[C@@H](O)CN1c1ccc(-c2ncnc(Nc3ccc(N4CCN(C5COC5)CC4)cc3)n2)cc1C#N    17
C[C@H](O)C(=O)N1CC[C@H](Oc2ccc(-c3ncnc(Nc4ccc(N5CCN(C6COC6)CC5)c(C(F)(F)F)c4)n3)cc2C#N)[C@H](F)C1    8
N#Cc1cc(-c2ncnc(Nc3ccc(N4CCN(C5COC5)CC4)c(F)c3)n2)ccc1O[C@H]1CCN(C(=O)CO)C[C@H]1F    1

Below are some compounds; for each one, tell me its IC50.
1. C[C@H](O)C(=O)N1CC[C@H](Oc2ccc(-c3ncnc(Nc4ccc(N5CCN(C6COC6)CC5)cc4)n3)cc2C#N)C(F)(F)C1 (single isomer, unassigned)
2. N#Cc1cc(-c2ncnc(Nc3ccc(N4CCN(C5COC5)CC4)cc3)n2)ccc1O[C@H]1CCN(C(=O)[C@@H]2CCCCN2)C[C@H]1F
3. C[C@H](O)C(=O)N1CC[C@H](Oc2ccc(-c3ncnc(Nc4ccc(N5CC(C)(O)C5)cc4)n3)cc2C#N)[C@H](F)C1
4. CC(=O)N[C@@H](C)C(=O)N1CC[C@H](Oc2ccc(-c3ncnc(Nc4ccc(N5CCN(C6COC6)CC5)cc4)n3)cc2C#N)[C@H](F)C1
5. N#Cc1cc(-c2ncnc(Nc3ccc(N4CCN(C5COC5)CC4)cc3)n2)ccc1O[C@H]1CCOC1
6. COC(=O)N1CC[C@@H](Oc2ccc(-c3ncnc(Nc4ccc(N5CCN(C6COC6)CC5)cc4)n3)cc2C#N)C1
7. C[C@H](O)C(=O)N1CC[C@H](Oc2ccc(-c3ncnc(Nc4ccc(C5CCN(C6COC6)CC5)c(F)c4)n3)cc2C#N)[C@H](F)C1

1: 1; 2: 175; 3: 1; 4: 834; 5: 42; 6: 148; 7: 2

====

# assaySystem: TBK1 (Homo sapiens (Human), UniProt Q9UHD2)
# experimentSummary: TBK1 TR-FRET enzymatic assay;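 further: phosphorylation of a biotinylated Ser/Thr peptide by purified full-length recombinant TBK1, read by TR-FRET after 240 min at 25 °C, IC50 is the geometric mean of at least four runs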
I'd be grateful if you could share measured IC50 for these entries.
Numbers only, in nM.

C[C@H](O)C(=O)N1CC[C@H](Oc2ccc(-c3ncnc(Nc4cccc(C(C)(C)O)c4)n3)cc2C#N)[C@H](F)C1    3
Cc1cc(C)n(CCOc2ccc(-c3ncnc(Nc4ccc(N5CCN(C6COC6)CC5)cc4)n3)cc2C#N)n1    1000

Below are some molecules; for each one, tell me its IC50.
1. Cn1ccc(Nc2ncnc(-c3ccc(OC4CCOCC4)c(C#N)c3)n2)n1
2. COc1cc(Nc2ncnc(-c3ccc(OC4CCOCC4)c(C#N)c3)n2)ccc1N1CCN(C2COC2)CC1

1: 55; 2: 1

====

# assaySystem: hJAK2 (Homo sapiens (Human), UniProt O60674)
# Sequence (O60674 whole entry): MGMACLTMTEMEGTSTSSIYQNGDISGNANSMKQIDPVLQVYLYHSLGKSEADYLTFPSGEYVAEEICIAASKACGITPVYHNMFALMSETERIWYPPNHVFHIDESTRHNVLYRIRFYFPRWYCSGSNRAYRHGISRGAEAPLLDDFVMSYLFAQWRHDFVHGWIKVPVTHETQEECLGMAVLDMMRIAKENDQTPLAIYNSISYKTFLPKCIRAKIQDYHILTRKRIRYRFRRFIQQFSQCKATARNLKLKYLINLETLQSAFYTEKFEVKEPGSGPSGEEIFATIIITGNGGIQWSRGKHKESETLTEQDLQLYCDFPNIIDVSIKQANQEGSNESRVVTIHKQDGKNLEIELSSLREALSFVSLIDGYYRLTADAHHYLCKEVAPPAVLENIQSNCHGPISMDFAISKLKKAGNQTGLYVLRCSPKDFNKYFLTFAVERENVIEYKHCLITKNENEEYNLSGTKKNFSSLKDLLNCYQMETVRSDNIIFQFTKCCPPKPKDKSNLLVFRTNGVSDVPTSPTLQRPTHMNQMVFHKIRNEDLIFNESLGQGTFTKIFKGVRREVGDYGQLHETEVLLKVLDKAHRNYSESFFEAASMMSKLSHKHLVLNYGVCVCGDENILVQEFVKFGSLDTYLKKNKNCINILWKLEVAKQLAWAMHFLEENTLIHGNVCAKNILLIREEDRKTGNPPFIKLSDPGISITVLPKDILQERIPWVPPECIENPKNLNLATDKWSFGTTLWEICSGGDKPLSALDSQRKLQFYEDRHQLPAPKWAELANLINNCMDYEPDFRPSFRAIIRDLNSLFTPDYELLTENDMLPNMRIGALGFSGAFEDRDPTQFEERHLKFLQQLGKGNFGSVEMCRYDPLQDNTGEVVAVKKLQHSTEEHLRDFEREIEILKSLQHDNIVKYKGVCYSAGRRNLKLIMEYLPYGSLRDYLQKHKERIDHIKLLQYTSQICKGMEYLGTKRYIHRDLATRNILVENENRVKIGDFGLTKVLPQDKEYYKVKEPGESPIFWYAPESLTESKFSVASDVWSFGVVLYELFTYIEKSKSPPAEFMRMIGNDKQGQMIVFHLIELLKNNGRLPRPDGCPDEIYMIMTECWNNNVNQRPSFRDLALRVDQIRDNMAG
# experimentSummary: hJAK2 LANCE TR-FRET enzymatic assay
# Type: biochemical
# conditionDetails: read-out: JAK2 IC50
pIC50: −log10 of the molar value.
I'd be grateful if you could share measured pIC50 for these entries.

Consider the worked cases shown below.
N#Cc1cc(-c2ncnc(Nc3ccc(N4CCN(C5COC5)CC4)cc3)n2)ccc1OC1C2CC1CN(C(=O)CO)C2 (stereo not drawn) [Example 172]    ≤ 6.00
N#Cc1cc(-c2ncnc(Nc3ccc(N4CC(O)C4)nc3)n2)ccc1OC1CCOCC1 [Example 287]    ≤ 6.00
C[C@H](O)C(=O)N1CC[C@H](Oc2ccc(-c3ncnc(Nc4ccc(C5CCOCC5)cc4)n3)cc2C#N)[C@H](F)C1 [Example 293]    ≤ 6.00
COc1cc(Nc2ncnc(-c3ccc(O[C@H]4CCN(C(=O)[C@@H](O)CO)CC4(F)F)c(C#N)c3)n2)ccn1 [Example 479]    ≤ 6.00
N#Cc1cc(-c2ncnc(Nc3ccc(N4CCOCC4)cc3)n2)ccc1O[C@H]1CCN(C(=O)[C@@H](O)CO)C[C@H]1F [Example 555]    6.14
C[C@H](O)C(=O)N1CC[C@H](Oc2ccc(-c3ncnc(Nc4ccc(N5CCOC[C@H]5CO)cc4)n3)cc2C#N)[C@H](F)C1 [Example 383]    6.25

Below are some compounds; for each one, tell me its pIC50.
1. CC(C)(O)CC(=O)N1CC[C@H](Oc2ccc(-c3ncnc(Nc4ccc(N5CCN(C6COC6)CC5)cc4)n3)cc2C#N)[C@H](F)C1 [Example 553]
2. N#Cc1cc(-c2ncnc(Nc3ccc(C4CCN(C5COC5)CC4)cc3)n2)ccc1OC1CCOCC1 [Example 54]
3. N#Cc1cc(-c2ncnc(Nc3ccc(N4CCN(C5COC5)CC4)nc3)n2)ccc1OC1CCOCC1 [Example 43]

≤ 6.00
< 6.00
< 6.00

====

# assaySystem: hJAK2 (Homo sapiens (Human))
pIC50: −log10 of the molar value.
I'd be grateful if you could share measured pIC50 for these entries.

C[C@H](O)C(=O)N1CC[C@H](Oc2ccc(-c3ncnc(Nc4ccc([C@H]5CCCN5C5COC5)cc4)n3)cc2C#N)[C@H](F)C1 [Example 616]    ≤ 6.00
COc1cccc(Nc2ncnc(-c3ccc(OC4CCOCC4)c(C#N)c3)n2)c1 [Example 78]    < 6.00
N#Cc1cc(-c2ncnc(Nc3cnn(C(F)F)c3)n2)ccc1O[C@H]1CCNC[C@H]1F [Example 453]    ≤ 6.00
Cn1ccc(C(=O)N2CCC(COc3ccc(-c4ncnc(Nc5ccc(N6CCN(C7COC7)CC6)cc5)n4)cc3C#N)CC2)cc1=O [Example 593]    ≤ 6.00

Consider the compound CN1CCN(c2cccc(Nc3ncnc(-c4ccc(OC5CCOCC5)c(C#N)c4)n3)c2)CC1 [Example 62] . State its measured pIC50.
< 6.00
